B1: ZBED2 (parent)
chain: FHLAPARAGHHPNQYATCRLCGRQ

Variants of: B1
Assay: protein stability index of a GFP-peptide fusion (GPS, HEK-293T) (PSI 1-6); higher = more stable;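 note: lentivirally expressed fusions sorted by FACS into six bins by GFP to DsRed ratio, PSI derived from sequencing read proportions per bin multiplied by bin number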
Settings: c terminus: a fixed tail appended
measure_name: protein stability index
Numbers only.

| sequence_input | measured_number |
| --- | --- |
| FHLAPALAGHHPNQYATCRLCGRQ | 1.92 |
| FHLMPARAGHHPNQYATCRLCGRQ | 1.39 |
| FHLAPARAGHHPNQYCTCRLCGRQ | 2.85 |

Required: protein stability index, one value per variant below.
1. FNLAPARAGHHPNQYATCRLCGRQ
2. FHLAPARAGAHPNQYATCRLCGRQ
3. FHIAPARAGHHPNQYATCRLCGRQ
4. FHLAPARAGHHPIQYATCRLCGRQ
5. FHLAPARAGHHPNQYATCRLCGMQ
6. FHLAPARAGHHSNQYATCRLCGRQ
7. FHLTPARAGHHPNQYATCRLCGRQ
8. FHLAPARAGDHPNQYATCRLCGRQ

A:
1. 2.65
2. 1.22
3. 1.38
4. 1.42
5. 1.81
6. 2.23
7. 1.84
8. 1.27

The reported numbers originate from the supplement of paper PMC10567573.
